- assayTarget: p38 MAP kinase (Homo sapiens)
- Sequence (Q16539 whole entry): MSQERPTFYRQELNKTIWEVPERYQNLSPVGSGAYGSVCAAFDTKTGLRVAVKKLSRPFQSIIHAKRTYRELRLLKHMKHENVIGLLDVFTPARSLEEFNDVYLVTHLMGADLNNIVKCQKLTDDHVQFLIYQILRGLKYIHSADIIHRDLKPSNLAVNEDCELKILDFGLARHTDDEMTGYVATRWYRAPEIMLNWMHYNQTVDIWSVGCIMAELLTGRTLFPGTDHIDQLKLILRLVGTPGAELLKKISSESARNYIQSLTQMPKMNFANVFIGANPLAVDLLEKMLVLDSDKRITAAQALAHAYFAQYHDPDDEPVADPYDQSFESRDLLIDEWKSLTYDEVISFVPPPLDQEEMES
- experimentalProtocol: in vitro inhibition of p-38 (MAP) kinase, transfer of γ-33P from ATP to Myelin Basic Protein
- details: phosphorylated recombinant p38 MAP kinase; MBP substrate, γ-33P-ATP; 30° C.
quantityName: IC50 (µM)

Cn1c(=O)c(-c2ccccc2Cl)cc2cnc(N[C@H]3CC[C@H](O)CC3)nc21 [Cpd 1] | 0.0205
Cc1ccccc1-c1cc2cnc(NC3CCN(S(=O)(=O)CC(F)(F)F)CC3)nc2n(C)c1=O.Cl [Cpd 128] | 0.0006

(A) Cn1c(=O)c(-c2ccccc2Cl)cc2cnc(NC3CCC4(CC3)NC(=O)NC4=O)nc21 (stereo not shown) [compound 29]
(B) Cl.N#CCn1c(=O)c(-c2ccccc2Cl)cc2cnc(N[C@H]3CC[C@H](O)CC3)nc21 [Example 44]
Between A and B , which one has the lower reported IC50 value? Select an item and report its label.
B
